B1: Peroxisome proliferator-activated receptor delta, residues 71 to 145; numbered along this chain, Q03181 (parent)
chain: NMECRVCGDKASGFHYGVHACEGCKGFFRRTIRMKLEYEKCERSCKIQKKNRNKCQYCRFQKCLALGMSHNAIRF

variants of: B1; experiment: abundance fitness (aPCA) (normalised: wild type 0, dead -1); higher = more abundant; growth selection in yeast, the domain comes from the species named; conditions: Homo sapiens
// reported abundance fitness for each item listed
reportedEndpoint: abundance fitness

| mutationNotation | measurement |
| --- | --- |
| F27L | -0.784 |
| L64N | -0.906 |
| Y16S | -0.132 |
| I32D | -0.5 |
| E22D | -0.148 |
| C7S | -0.575 |
| G13C | -0.596 |
| K46I | 0.12 |
| K62H | -0.522 |
| Q56W | -0.341 |
| K10L | -0.018 |
